Target: PCP recognition sites (PCP receptor)
Experiment: [3H]TCP radioreceptor assay (binding to PCP recognition sites)
Details: rat whole brain membranes, approx. 1 nM [3H]TCP; mean of at least two determinations
Description: [^3 H]TCP Radioreceptor Assay [^3 H]TCP binding to PCP recognition sites was performed as described by Vignon et al. Brain Research 1983, 280, 194-197. Male Sprague-Dawley rats were sacrificed by decapitation, and whole brains were homogenized in 10 volumes (wt/vol) of cold Tris-HCl buffer (50 mM, pH 7.7) using a Brinkmann Polytron (setting 6, 30 sec). The homogenate was centrifuged at 40,000×g for 10 min at 4° C. […]
// values below are reported log10 of Ki
readout_type: log10 of Ki (log10 of the value in nM)

[[record]]
compound = "Cn1nc[n+]2c1C1c3ccccc3C2CC1(c1ccccc1)c1ccccc1 (centres unmarked) [11(g)]"
reported_measurement = 1.54

[[record]]
compound = "Oc1cccc2c1C1c3scc[n+]3C2CC1(c1ccoc1)c1ccoc1 (centres unmarked) [206(f)]"
reported_measurement = 0.27

[[record]]
compound = "c1ccc(Cn2cc[n+]3c2C2c4ccccc4C3CC2(c2ccccc2)c2ccccc2)cc1 (centres unmarked) [9(b)]"
reported_measurement = 1.95

[[record]]
compound = "c1ccc(-n2cc[n+]3c2C2c4ccccc4C3CC2(c2ccoc2)c2ccoc2)cc1 (centres unmarked) [199(f)]"
reported_measurement = 1.72

[[record]]
compound = "Cc1csc2[n+]1C1CC(c3ccoc3)(c3ccoc3)C2c2ccccc21 (centres unmarked) [15(F)]"
reported_measurement = 1.30

[[record]]
compound = "COc1ccc(Cn2cc[n+]3c2C2c4ccccc4C3CC2(c2ccoc2)c2ccoc2)cc1 (centres unmarked) [19(F)]"
reported_measurement = 1.48

[[record]]
compound = "Cn1nc[n+]2c1C1c3ccccc3C2CC1(c1ccoc1)c1ccoc1 (centres unmarked) [14(E)]"
reported_measurement = 1.15

[[record]]
compound = "c1ccc2c(c1)C1CC(c3ccoc3)(c3ccoc3)C2c2n(Cc3ccc4ccccc4c3)cc[n+]21 (centres unmarked) [204(e)]"
reported_measurement = 2.52

[[record]]
compound = "CCOC1(OCC)C2c3ccccc3C([n+]3ccn(Cc4ccccc4)c32)C1(C)C (centres unmarked) [8(b)]"
reported_measurement = 1.00

[[record]]
compound = "c1ccc2c(c1)C1CC(c3ccoc3)(c3ccoc3)C2c2scc[n+]21 (single isomer, unassigned; (+)) [5(e)]"
reported_measurement = 0.30

[[record]]
compound = "c1ccc(C(c2ccccc2)n2cc[n+]3c2C2c4ccccc4C3CC2(c2ccoc2)c2ccoc2)cc1 (centres unmarked) [203(d)]"
reported_measurement = 2.49

